Reported growth values for a set of molecules
System: UO-31 renal
assay-info: NCI-60 one-dose screen, 48 h (100 = growth as untreated, 0 = no growth, -100 = all killed)
experimental-setup: 10 µM unless noted
This is part of a sample that, as a whole, favours compounds with a hit. Of some 83,000 tested, about 20% had one in any assay.
Express it in %; write the number only.

>>> obs_value("COc1ccc(/C=C/C(=O)c2ccc(NC(=O)c3cc4cc5ccccc5nc4s3)cc2)cc1OC")
88.5

Answer with the recorded growth for the molecule listed here: COc1ccc(/C=N\NC(=O)CN2CCN(c3cc4c(cc3F)c(=O)c(C(=O)N/N=C/c3ccc(OC)cc3)cn4C3CC3)CC2)cc1
57.6

Answer with the recorded growth for the molecule listed here: COc1c2ccccc2c(OC)c2[nH]c(=O)ccc12
59.9

Answer with the recorded growth for the molecule listed here: O=C(CN1CCN(c2cc3c(cc2F)c(=O)c(C(=O)O)cn3C2CC2)CC1)Nc1nc(-c2ccc(Cl)cc2)cs1
20.2

Answer with the recorded growth for the molecule listed here: CC(C)c1c(C(=O)Nc2ccccc2)c(-c2ccccc2)c(-c2ccc(F)cc2)n1CC[C@@H]1CC=CC(=O)O1
-75.9

* * *

Test system: RPMI-8226 leukemia
assay-info: NCI-60 one-dose screen, 48 h (100 = growth as untreated, 0 = no growth, -100 = all killed)
experimental-setup: 10 µM unless noted
The panel holds about 83,000 compounds, 20% with a hit somewhere; the sample as a whole holds those more often.
test-readout: growth (%)
Express it in %; write the number only.

# count of solved cases: 3
>>> obs_value("O=S(=O)(NCCCNc1cc(-c2cn(-c3ccccc3)nc2-c2cccc(O)c2)ccn1)c1ccccc1")
32.1
>>> obs_value("Cc1ccccc1CCO")
108
>>> obs_value("COc1cccc(-c2nc3sccn3c2-c2ccnc(NCCCNS(=O)(=O)c3ccc(Cl)cc3)c2)c1")
9.05

Answer with the recorded growth for the molecule listed here: CSc1nc(NCCCNc2ccnc3cc(Cl)ccc23)cc(-c2ccccc2)n1
7.4

Answer with the recorded growth for the molecule listed here: O=C(CN1CCN(c2cc3c(cc2F)c(=O)c(C(=O)N/N=C/c2ccccc2)cn3C2CC2)CC1)N/N=C\c1ccccc1
39.2

Answer with the recorded growth for the molecule listed here: Nc1cccc(NC(=O)C(=O)Nc2cccc(N)c2)c1
88.1

Answer with the recorded growth for the molecule listed here: CC(=O)C1=C(O)C=C2Oc3c(C(=O)/C=C/c4ccccc4)c(O)c(C)c(O)c3[C@]2(C)C1=O
34.9

Answer with the recorded growth for the molecule listed here: COc1ccc(/C=C/C(=O)c2ccc(NC(=O)c3cc4cc5ccccc5nc4s3)cc2)cc1OC
99.4

Answer with the recorded growth for the molecule listed here: CC1CN(C(C)C)C(=S)N(c2ccccc2)C1=O (stereo not given)
120

Answer with the recorded growth for the molecule listed here: Cc1ccc(SCN2CCN(c3cccc(Cl)c3)CC2)cc1
164

* * *

System: SK-MEL-5 melanoma
assay-info: NCI-60 one-dose screen, 48 h
experimental-setup: 10 µM unless noted
The panel holds about 83,000 compounds, 20% with a hit somewhere; the sample as a whole holds those more often. Activity calls are given as the source filed them. Rule for the calls: active = growth percent below 10; inactive = the rest.
Assign a class; possible classes are 1 (yes) for active, 0 (no) for inactive

Here are 2 molecules together with their reported answers.
>>> classification("CCN(CC)CCC(=O)Nc1ccc(Cn2nnc3c2C(=O)c2nnn(Cc4ccc(NC(=O)CCN(CC)CC)cc4)c2C3=O)cc1")
"1 (yes)"
>>> classification("O=C(Nc1cccc2c1C(=O)c1cccc(Nc3cccc4c3C(=O)c3cccc(NC(=O)c5ccccc5)c3C4=O)c1C2=O)c1ccccc1")
"0 (no)"

Lab log entry: COC(=O)C12C3C(=O)N(c4ccc(OC)cc4)C(=O)C3C(c3cn(-c4ccccc4)nc3C)N1[C@H](c1cn(-c3ccccc3)nc1C)[C@@H]1C(=O)N(c3ccc(OC)cc3)C(=O)[C@@H]12 (stereo partly specified) — outcome as called in the assay?
0 (no)
